system: ACHN; experiment: NCI tumour cell line growth inhibition, 48 h
Active and inactive are the calls of the source. Cut-off read from the data, not from the text of the source: active = GI50 up to about 1.1 µM and inactive = higher.
Below, each of the compounds is paired with its reported GI50 value.

Below are worked cases with known answers.
compound=CC(C)S(=O)(=O)ON1C(=O)c2ccc([N+](=O)[O-])cc2C1=O parameter=GI50 result="> 100 µM (inactive)"
compound=O=C1OC(c2ccc(Cl)cc2)(c2ccc(Cl)cc2)c2c1ccc1ccccc21 parameter=GI50 result="> 100 µM (inactive)"
compound="O=C(CC(C(=O)c1ccsc1)c1cccs1)c1ccsc1 (stereo not given)" parameter=GI50 result="42 µM (inactive)"
compound="CCOc1ccc2c(c1)NC(=O)C(C1OC(c3ccccc3)=CC1=O)S2 (stereo not given)" parameter=GI50 result="37.2 µM (inactive)"

For the compound CC(C)(C)NC(NC(C)(C)C)=C(C(Cl)=C(Cl)Cl)[N+](=O)[O-] , give its measured GI50 value.
> 100 µM (inactive)

Name the recorded GI50 of the item C[C@]12CC[C@H](OC(=O)Cc3ccc(N(CCCl)CCCl)cc3)CC1CC[C@@H]1C2CC[C@]2(C)NC(=O)CCC12 (stereo not given in full) in your answer.
4.04 µM (inactive)

Give the measured GI50 for O=C1/C(=C/c2ccccc2Cl)COc2ccc(Br)cc21
> 100 µM (inactive)

For the compound N#CCC(=O)Nc1ccccc1O , give its measured GI50 value.
> 100 µM (inactive)

Quick one: give measured GI50 for Cc1cc(C)c([S@@](=O)O[C@@H]2[C@H]3OC(C)(C)O[C@H]3O[C@@H]2[C@H]2COC(C)(C)O2)c(C)c1
15.3 µM (inactive)

Please give the documented GI50 of CC(=O)O/C=C\OC1CCCC1(c1ccccc1)c1ccccc1 (stereo not given)
2.03 µM (inactive)

---

system: Malme-3M; test: NCI tumour cell line growth inhibition, 48 h
The source made the active and inactive calls. No stated cut-off is given here; in the data, active = GI50 up to about 1.1 µM and inactive = higher.
Result category, one only: label 1 = active, label 0 = inactive

Please review the following examples before continuing.
compound=COc1cc2c(c(C)c1O)[C@H]1COc3ccccc3[C@H]1O2 assigned_label="label 0"
compound=NCS(=O)(=O)O assigned_label="label 0"
compound=CC1(C)N=[N+]([O-])C1(C)C assigned_label="label 0"
compound="CC(=O)OCC1OC(n2cc(I)c(=O)[nH]c2=O)C(OC(C)=O)C(OC(C)=O)C1OC(C)=O (configuration not stated)" assigned_label="label 0"
compound=Cc1c(-c2ccccc2)n(C)c2cn[nH]c(=O)c12 assigned_label="label 0"

Here's the next entry for you.
Check the results log: what was the call for COc1ccc(NC(=S)N/N=C(\C)c2nc3cccnc3[nH]2)cc1 ?
label 0

---

test system: EKVX; assay: NCI tumour cell line growth inhibition, 48 h
Activity calls are given as the source filed them. No stated cut-off is given here; in the data, active = GI50 up to about 1.1 µM and inactive = higher.
Write down one outcome, taken from active, inactive

Observe how each entry below is paired with its result.
molecule=Cc1cccc2c(N)c3cccc(C(=O)NCC[N+]4(Cc5ccc([N+](=O)[O-])cc5)CCOCC4)c3nc12 assigned_label=inactive
molecule="CC12C=C[C@]3(CC[C@@H]4[C@@](C)(CO)CCC[C@]4(C)C3CC1)C2 (some centres undefined)" assigned_label=inactive
molecule=Cc1ccc(S(=O)(=O)Nn2c(S)c(C#N)c(-c3ccc(Cl)cc3)c(C#N)c2=O)cc1 assigned_label=inactive
molecule="OC1COC(n2c3ccc(Br)cc3c3ccc4c5ccccc5[nH]c4c32)C(O)C1O (centres undefined)" assigned_label=inactive
molecule=COc1ccc(CCNC(=O)CCCCCO)cc1OC assigned_label=inactive
molecule=CO[C@@H](c1ccccc1)[C@H](O)[C@@](O)(c1ccccc1)P(=O)(OC)OC assigned_label=inactive
molecule=CCOC(=O)c1sc2c(c1OC(=O)c1cc(OC)c(OC)c(OC)c1)c(=O)n(-c1ccccc1)c(=S)n2-c1ccccc1 assigned_label=inactive
molecule=OCc1ccc2c(c1)CC1(Cc3ccccc3C1)C2 assigned_label=inactive

Per the assay record, what outcome was assigned to O=c1[nH]cnc2c1ncn2C1SC(CO)C(O)C1O (centres undefined) ?
inactive

Look up the recorded call for CC(C)(Oc1ccc(C(=O)c2ccc(Cl)cc2)cc1Cl)C(=O)N1CCN(CCO)CC1 in this test.
inactive

---

tested on: COLO 205; assay: NCI tumour cell line growth inhibition, 48 h
Calls of active or inactive are those of the source. Rule as the data show it: active = GI50 up to about 1.1 µM and inactive = higher.
GI50: recorded values

compound=COc1nc(N)nc2nc[nH]c12 parameter=GI50 result="393 µM (inactive)"

Give the value of GI50 reported for the following: CC(C)(C)C(=O)C(C#N)C(=O)C(C)(C)C
> 100 µM (inactive)

Find the measured GI50 of C[C@@H](c1ccccc1)n1c(N)c(C#N)c2ccc([N+](=O)[O-])cc2c1=O and report it.
15 µM (inactive)

In one line, give reported GI50 of the entry Cn1c2ccccc2n2c3ncccc3c(=O)c(C#N)c12 .
3.91 µM (inactive)

---

test system: KM-20L2; assay: NCI tumour cell line growth inhibition, 48 h
Activity calls are given as the source filed them. Cut-off read from the data, not from the text of the source: active = GI50 up to about 1.1 µM and inactive = higher.
A correct response names exactly one class from T = active, F = inactive

Some solved entries appear below for comparison.
compound="COc1ccc(N2C(=O)C3C=CC(n4[nH]c(=O)n(Cc5ccccc5)c4=O)CC3C2=O)cc1 (stereo not given)" tested_target=KM-20L2 assigned_label=F
compound="C=CCCCCCCCCCCCC1CCC(CC)N1 (stereo not given)" tested_target=KM-20L2 assigned_label=F

Check the results log: what was the call for O=C1/C(=C/c2ccccc2Cl)COc2ccc(Br)cc21 ?
F

What did this assay record as the result for CCOc1ccc(NC(=O)CCc2nnc(SC)o2)cc1 ?
F

Answer briefly: the call reported for O=C1NC2(NC(=O)C1=O)Nc1ccccc1S2 in this assay.
F

Kindly provide the recorded test outcome for the following compound: C#CCOCn1cnc2c(S)ncnc21
F

How did this test come out for CCCc1nc(NC#N)nc(C(=O)Nc2ccccc2)c1CC ?
F

What call does the record list for O=C(/C=C/c1ccccc1O)c1ccccc1O ?
F

Call for entry COc1cc2c(cc1OC)C(OC)N(C)c1c-2ccc2cc3c(cc12)OCO3 (stereo not given) :
T

Could you check what this test reported for NC(=O)N/N=C(/Cc1nc2ccc(C(=O)c3ccccc3)cc2nc1O)C(=O)Nc1ccc(C(F)(F)F)cc1[N+](=O)[O-] ?
F

Hey, what did the test say about CC[C@@]1(O)C(=O)OCc2c1cc1n(c2=O)Cc2cc3c(OC)cccc3nc2-1 ?
T

# outcome recorded in this test, key = Nc1ccc(/C=C/c2ccnc3ccccc23)cc1
F

Which outcome did this test record for the compound CCOC1=C2N=C(Cc3ccc(F)cc3)NC2C(=O)c2ccccc21 (stereo not given) ?
F

Tell me the assay call for Oc1ccccc1-c1cnnc(-c2ccccc2O)c1 please.
F

Recorded test call requested for C/C(=N/NC(=O)C(N)=O)C(CC(C(=O)Nc1ccccc1C)/C(C)=N\NC(=O)C(N)=O)C(=O)Nc1ccccc1C (stereo not given)
F

// return assay outcome for COC(=O)[C@@H](C)[C@H]1CC[C@@](C)(CCC2=C(C)CC3C=C(C)CCC3C2(C)C)OO1 (stereo not given in full)
F

Dear all, I need the recorded test outcome for O=C1OC(c2ccc(Cl)cc2)(c2ccc(Cl)cc2)c2c1ccc1ccccc21 , thank you.
F

Short answer needed: outcome of this test for COc1ccc(NC(=O)/C(Cc2nc3ccccc3nc2O)=N\O)c(OC)c1 ?
F

Tell me the assay call for CC1=NN(C(=O)CC(=O)N(C(=O)c2ccccc2Cl)c2ccc(C)cc2)C(=O)C1/N=N/c1ccc([N+](=O)[O-])cc1 (stereo not given) please.
F

Dear colleague, could you share the recorded outcome for CCCC/C=C1\CCC(C)(CN(C)C)C1=O (stereo not given) when you have a moment?
F

---

test system: BT-549; test: NCI tumour cell line growth inhibition, 48 h
Active and inactive are the calls of the source. Rule as the data show it: active = GI50 up to about 1.1 µM and inactive = higher.
Give one outcome, nothing more. List: YES for active, NO for inactive

molecule=Cc1ccc(C(=O)/C=C2\Nc3ccccc3SC2=O)c(C)c1 assigned_label=NO

Recorded call for C=CCNC1=C2C[C@@H](C)C[C@H](OC)[C@H](O)[C@@H](C)/C=C(\C)[C@H](OC(N)=O)[C@@H](OC)/C=C\C=C(/C)C(=O)NC(=CC1=O)C2=O ?
NO

How did this test come out for CCc1ccc(/C=C\c2cc(OC)c(OC)c(OC)c2)cc1 ?
YES

Hi team, can someone confirm the assay call for COc1ccc2c(c1)N=C1CSC(c3ccccc3Cl)N1C2 (stereo not given) ?
NO

Hi, do you know how Cc1c(Cl)cccc1NC(=O)/C=C/c1ccccc1 came out in this test?
NO

Can you look up the reported call for COc1cc(/C=N/n2c(-c3ccccc3)nn(C(C)=O)c2=O)cc(OC)c1OC for me?
NO

Field: outcome | Entry: NCS(=O)(=O)O
NO

I would be grateful if you could indicate the recorded call for O=C(Nn1c(-c2cccs2)nc2ccc(I)cc2c1=O)c1ccccc1 .
NO

Hi, sorry to bother you, what did the test record for COc1cc2c3c(c4ccc(OC)c(OC)c4c2cc1OC)CN1CCC[C@@H]1C3 ?
YES

Write down the call the test reported for this molecule. Item: C/C(=N/NC(=O)c1ccncc1)c1ccc(NC(=O)C(=O)Nn2c(S)nc3ccccc3c2=O)cc1
NO
